The values you see were collected from paper PMC12416549.

Each record here notes measured apparent Kd (screen).
# TESTED_SYSTEM: T1, TNFR1 (Homo sapiens, UniProt P19438)
# T1 chain: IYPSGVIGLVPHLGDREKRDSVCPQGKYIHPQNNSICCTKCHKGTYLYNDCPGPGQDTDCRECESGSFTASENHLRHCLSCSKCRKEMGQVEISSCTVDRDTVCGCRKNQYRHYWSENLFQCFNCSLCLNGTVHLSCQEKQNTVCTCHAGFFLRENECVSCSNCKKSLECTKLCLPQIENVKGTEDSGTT
# EXPERIMENT_SUMMARY: yeast display SC50
Give just the numeric value; nM need not be written.

Before answering, review these 3 worked examples.
| BINDER | apparent Kd (screen), nM |
| --- | --- |
| L41M (designed binder) MTLQELLREEALRRAEAEAFRYALELLAEKFPEQKEYLLDMAEEIESQIRSLSGVDVEDVRKFLDKEWAWVKELLAEHPAELAEVEAARAARLAELRAEVEAKVAA | 0.718 |
| D59Q (designed binder) MTLQELLREEALRRAEAEAFRYALELLAEKFPEQKEYLLDLAEEIESQIRSLSGVDVEQVRKFLDKEWAWVKELLAEHPAELAEVEAARAARLAELRAEVEAKVAA | 0.869 |
| L39E (designed binder) MTLQELLREEALRRAEAEAFRYALELLAEKFPEQKEYLEDLAEEIESQIRSLSGVDVEDVRKFLDKEWAWVKELLAEHPAELAEVEAARAARLAELRAEVEAKVAA | 2.48 |

[Q] Any idea what apparent Kd (screen) was measured for E10H (designed binder) MTLQELLREHALRRAEAEAFRYALELLAEKFPEQKEYLLDLAEEIESQIRSLSGVDVEDVRKFLDKEWAWVKELLAEHPAELAEVEAARAARLAELRAEVEAKVAA ?
[A] 3.3
